Target: PI3Kγ (Homo sapiens, UniProt P48736, Q459R)
Construct: His (C); construct obtained from Roger Williams lab (MRC LMB)
Sequence (P48736 with tags, fused parts or gaps Q459R): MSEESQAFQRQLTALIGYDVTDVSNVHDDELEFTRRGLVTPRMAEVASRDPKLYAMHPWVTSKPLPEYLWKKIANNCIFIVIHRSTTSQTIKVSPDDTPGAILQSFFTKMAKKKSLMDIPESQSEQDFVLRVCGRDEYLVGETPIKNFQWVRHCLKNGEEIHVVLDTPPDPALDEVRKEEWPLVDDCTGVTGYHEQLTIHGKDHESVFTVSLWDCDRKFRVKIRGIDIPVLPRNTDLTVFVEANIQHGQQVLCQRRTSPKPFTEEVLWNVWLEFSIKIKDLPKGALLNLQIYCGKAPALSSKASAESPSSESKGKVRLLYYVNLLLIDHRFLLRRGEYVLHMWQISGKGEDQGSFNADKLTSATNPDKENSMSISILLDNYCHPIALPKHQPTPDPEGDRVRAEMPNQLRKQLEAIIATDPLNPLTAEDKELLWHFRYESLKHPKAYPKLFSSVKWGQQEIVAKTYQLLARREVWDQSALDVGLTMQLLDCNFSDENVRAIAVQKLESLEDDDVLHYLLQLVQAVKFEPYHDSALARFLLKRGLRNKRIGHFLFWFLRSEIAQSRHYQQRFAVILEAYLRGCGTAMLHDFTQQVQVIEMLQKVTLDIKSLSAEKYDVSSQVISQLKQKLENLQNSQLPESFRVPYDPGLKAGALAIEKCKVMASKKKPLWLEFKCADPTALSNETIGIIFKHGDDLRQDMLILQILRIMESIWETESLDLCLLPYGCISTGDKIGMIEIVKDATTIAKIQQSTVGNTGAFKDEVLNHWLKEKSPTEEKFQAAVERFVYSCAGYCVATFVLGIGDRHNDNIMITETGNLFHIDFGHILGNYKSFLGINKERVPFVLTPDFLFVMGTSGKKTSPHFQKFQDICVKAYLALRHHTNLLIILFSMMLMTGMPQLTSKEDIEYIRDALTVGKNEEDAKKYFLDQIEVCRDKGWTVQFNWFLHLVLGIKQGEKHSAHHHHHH
Experiment: PI3K KinaseGlo assay, PI3Kgamma
Conditions: KinaseGlo, 1 μM ATP, 150 nM enzyme, 90 mins
property-label: pIC50
Entry type: numeric. Quantity: pIC50, the -log10 of concentration in molar units.

A selection of reference data follows.
>  <compound>
Cc1nc(NC(=O)N2CC[C@@H](C)[C@H]2C(N)=O)sc1-c1ccnc(C(C)(C)C(F)(F)F)c1 [Example 2]

>  <quantitative-readout>
6.98

$$$$
>  <compound>
[2H]C([2H])([2H])C([2H])([2H])N(c1cncc(-c2sc(NC(=O)N3CC[C@@H](C)[C@H]3C(N)=O)nc2C)n1)C([2H])([2H])C([2H])([2H])[2H] [Example 13]

>  <quantitative-readout>
6.38

$$$$
>  <compound>
Cc1nc(NC(=O)N2CCC(C)(C)C2C(N)=O)sc1-c1ccnc(C2(C)CC2)c1 (racemic) [Example 3]

>  <quantitative-readout>
5.97

$$$$

Now turn to the next compound.
Query block: Indicate its recorded pIC50; the compound in question is Cc1nc(NC(=O)N2CC[C@@H](C)[C@H]2C(N)=O)sc1-c1ccnc(C2(C)CC2)c1 [Example 1]
Result block: 6.76
